Every entry's value here was drawn from BindingDB's records for PubMed 35239336.

# procedure-summary: Inhibition of MK-499 binding to hERG
# IC50 per entry
Could you give me the number in µM? Just the number is fine.

Reference set (4 entries):
compound: CC(C)(O)c1cc(C(F)(F)F)ncc1-c1ccc(C2(C(=O)Nc3ccc(F)cc3)COC2)cc1
quantity-name: IC50
u: µM
value-measured: 21.3

compound: Cc1cc(C2CC2)ncc1-c1ccc(C2(C(=O)Nc3ccc(F)cc3)COC2)cc1
quantity-name: IC50
u: µM
value-measured: 15.9

compound: O=C(Nc1ccc(F)cc1)C1(c2ccc(-c3cnc(C(F)(F)F)cc3CO)cc2)CC(F)(F)C1
quantity-name: IC50
u: µM
value-measured: 6.1

compound: Cc1cc(C(F)(F)F)ncc1-c1ccc(C2(C(=O)Nc3ccc(F)cc3)COC2)cc1
quantity-name: IC50
u: µM
value-measured: 2.23

// below: IC50 requested for another compound
Measured IC50 of `O=C(Nc1ccc(F)cc1)C1(c2ccc(-c3ccc(C4CC4)nc3)cc2)COC1` : 13.5
